Where these numbers come from: paper PMC12040169

// reported viability at 28.5 h, 10 µM per item
assay_explanation: in vitro
Set-up: Viability of infected HeLa host cells, resazurin conversion, bulk resorufin fluorescence relative to DMSO
test_parameters: human, hela cells; bulk resorufin, mean of 2
# value in %; strip the unit string

Examples with their reported viability at 28.5 h, 10 µM follow.
{"molecule": "COc1cc(N)c2ncccc2c1 [CBK011972C]", "unit_text": "%", "viability at 28.5 h, 10 µM": 80}
{"molecule": "Cc1ccc(Nc2ncc(C(=O)NCCCN3CCN(c4cccc(Cl)c4)CC3)c3ccccc23)cc1Cl", "unit_text": "%", "viability at 28.5 h, 10 µM": 99.2}
{"molecule": "COc1ccc(C(=O)NNC(=O)/C=C/c2ccc(C(C)C)cc2)cc1", "unit_text": "%", "viability at 28.5 h, 10 µM": 94.3}

Query: Entry "O=C(NCC1CC1)c1ccc(N2CCN(C(=O)c3ccccc3C(F)(F)F)CC2)nn1" : reported viability at 28.5 h, 10 µM = ?
Result: 95.9

Query: Entry "O=C(CSc1nnc(-c2cccnc2)o1)c1ccccc1" : reported viability at 28.5 h, 10 µM = ?
Result: 114

Query: Entry "NCCCNc1ncc(C(=O)NCc2ccccc2)c(NCC2CCCCC2)n1" : reported viability at 28.5 h, 10 µM = ?
Result: 96.6

Query: Entry "Cc1noc(NS(=O)(=O)c2ccc(NC(=O)COc3cccc(Br)c3)cc2)c1C" : reported viability at 28.5 h, 10 µM = ?
Result: 94.3

Query: Entry Cc1cccc(OCC(C)NC(=O)NCCc2cnn(C)c2)c1 (stereo not shown) : reported viability at 28.5 h, 10 µM = ?
Result: 89.3

----------
assay_explanation: in vitro
test_parameters: human, hela cells, % viability
metric: viability at 28.5 h, 10 µM (%)
# value in %; strip the unit string

{"compound": "CC(=O)NC1CCN(CC2(c3cccc(F)c3)CCCC2)CC1 [CBK282590]", "observed": 95.7}
{"compound": "Cc1ccc(NC(=O)Cn2cnc3sc(C(=O)Nc4ccccc4)c(C)c3c2=O)cc1 [CBK265931]", "observed": 101}
{"compound": "COC(=O)[C@@H]1Cc2ncn(C(C)C)c2CN1C(=O)C1CCCCC1 [CBK288989]", "observed": 98.9}
{"compound": "O=S1(=O)CCN(Cc2cnn(-c3cncnc3)n2)CC1 [CBK112878]", "observed": 100}
{"compound": "CCSc1cc(Nc2nc(Cl)cc(SCC)n2)nc(N)n1 [CBK005164]", "observed": 92.6}
{"compound": "CN1CCN(CCCNC(=O)N2CCN(c3cc(C(F)(F)F)ccn3)CC2)CC1 [CBK156431]", "observed": 93.7}
{"compound": "O=C1c2cccc3cccc(c23)C(=O)N1CCN1CCN(CC(O)COc2ccc(Cl)cc2Cl)CC1 (stereo not drawn) [CBK264881]", "observed": 94.5}
{"compound": "Nc1nnc(CCS(=O)(=O)c2ccc(Br)cc2)s1 [CBK026286]", "observed": 109}

# context switch: different compound, same viability at 28.5 h, 10 µM
Query: Entry Cc1ccc(S(=O)(=O)NC(C)(C)C(=O)O)cc1 [CBK263840] : reported viability at 28.5 h, 10 µM = ?
Result: 88.8
